This collection of values is drawn from patent US20250277012A1.

Target: ferroportin (Homo sapiens)
Sequence (Q9NP59 whole entry): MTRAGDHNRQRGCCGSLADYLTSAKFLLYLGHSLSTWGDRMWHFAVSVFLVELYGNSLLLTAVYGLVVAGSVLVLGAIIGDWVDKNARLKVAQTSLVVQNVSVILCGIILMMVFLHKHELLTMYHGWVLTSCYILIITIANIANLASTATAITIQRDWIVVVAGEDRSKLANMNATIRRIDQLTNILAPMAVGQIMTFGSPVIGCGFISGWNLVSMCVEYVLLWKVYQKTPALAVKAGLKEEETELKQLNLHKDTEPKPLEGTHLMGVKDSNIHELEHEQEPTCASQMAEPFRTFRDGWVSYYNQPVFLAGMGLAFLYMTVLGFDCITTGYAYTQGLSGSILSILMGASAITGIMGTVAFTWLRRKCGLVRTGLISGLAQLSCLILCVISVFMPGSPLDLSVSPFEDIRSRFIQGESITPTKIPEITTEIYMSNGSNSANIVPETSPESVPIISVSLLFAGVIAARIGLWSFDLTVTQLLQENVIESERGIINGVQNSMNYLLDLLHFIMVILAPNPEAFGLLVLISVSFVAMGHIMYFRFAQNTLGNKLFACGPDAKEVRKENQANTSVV
Assay: FPN activity assay: ferroportin-GFP internalization/degradation in HEK293 cells
Format: cell-based
Design: expressed in transfected cells
Details: ferroportin-GFP HEK293 cells, at least 18 hours; read-out: FPN IC50
Protocol: Following internalization, the ferroporin protein is degraded. A retro inverse peptide is a peptide with a reversed sequence in all D amino acids. An example is that Hy-Glu-Thr-His-NH2 becomes Hy-DHis-DThr-DGlu-NH2. The EC50 of these reference compounds for ferroportin internalization/degradation was determined according to the FPN activity assay described above. These peptides served as control standards.
Starred links: 1 amine or outer side, 2 acyl side, 3 side chain; linkers in the order of their positions; H or OH if unused. Positions of bridges follow the written chain, without caps; N, C: chain ends. Non-standard residues stand in square brackets, D forms with d. Residues, ends and D or L forms follow the SMILES beside them. Groups on a side chain read outwards from the residue. *: point of attachment. Dip = N[C@H](C(=O)O)C(c1ccccc1)c1ccccc1; γGlu = O=C(O)[C@H](CCC(=O)[*:2])N[*:1]; Palmitoyl = CCCCCCCCCCCCCCCC(=O)*; β3hF = N[C@H](CC(=O)O)Cc1ccccc1; Isovaleryl = CC(C)CC(=O)*; Ahx = NCCCCCC(=O)O
VALUE TYPE: DC50

For the compound shown here, CCCCCCCCCCCCCCCC(=O)NCCCCCC(=O)NCCCC[C@H](NC(=O)C[C@H](Cc1ccccc1)NC(=O)[C@H]1CSSC[C@@H](NC(=O)CC(C)C)C(=O)N[C@@H]([C@@H](C)O)C(=O)N[C@@H](Cc2c[nH]cn2)C(=O)N[C@@H](C(c2ccccc2)c2ccccc2)C(=O)N2CCC[C@H]2C(=O)N[C@@H](C)C(=O)N[C@@H]([C@@H](C)CC)C(=O)N1)C(=O)N[C@H](CCCCN)C(N)=O [compound 105] (Isovaleryl-[dC]TH[Dip]PAI[dC][β3hF]K([Ahx-Palmitoyl])[dK]-NH2; disulfide 1-8) , give the reported DC50.
10 to 100 nM

// below: DC50 requested for another compound
For the compound shown here, CCCCCCCCCCCCCCCC(=O)N[C@@H](CCC(=O)NCCCC[C@H](NC(=O)[C@@H](NC(=O)[C@@H]1CSSC[C@H](NC(=O)[C@@H]2CCCN2C(=O)[C@H](Cc2ccccc2)NC(=O)[C@H](Cc2c[nH]cn2)NC(=O)[C@@H](NC(=O)[C@H](CC(=O)O)NC(=O)CC(C)C)[C@@H](C)O)C(=O)N1)[C@@H](C)CC)C(=O)N[C@@H](Cc1ccccc1)C(=O)N[C@@H](CCC(=O)O)C(=O)N1CCC[C@H]1C(=O)N[C@@H](CCCNC(=N)N)C(=O)O)C(=O)O [Compd 101] (Isovaleryl-DTHFPCCIK([γGlu-Palmitoyl])FEPR-OH; disulfide 6-7) , give the reported DC50.
10 to 100 nM
